- target-of-assay: PLK3 PBD (Homo sapiens, UniProt Q9H4B4)
- Construct: A similar assay format was developed for the PLK3 PBD
- Sequence (Q9H4B4 335-646 limits assumed): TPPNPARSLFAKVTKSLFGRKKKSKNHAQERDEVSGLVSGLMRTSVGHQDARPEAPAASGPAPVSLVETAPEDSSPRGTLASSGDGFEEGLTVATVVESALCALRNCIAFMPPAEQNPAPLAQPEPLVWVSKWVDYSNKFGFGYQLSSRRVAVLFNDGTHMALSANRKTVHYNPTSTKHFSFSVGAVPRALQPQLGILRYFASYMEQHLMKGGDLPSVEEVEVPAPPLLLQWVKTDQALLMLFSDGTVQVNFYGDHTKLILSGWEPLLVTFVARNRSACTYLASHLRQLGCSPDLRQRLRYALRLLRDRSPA
- measurement-notes: Fluorescence polarization competitive binding assay, PLK3 PBD
- assay-context: competition with fluorescent tracer peptide; read-out: PLK3 PBD FP IC50
Square brackets hold non-standard residues; d marks the D form. Peptide text beside a SMILES is read from it. * marks the point of attachment. Benzoyl(4-octyl) = CCCCCCCCc1ccc(C(=O)*)cc1; pT = C[C@@H](OP(=O)(O)O)[C@H](N)C(=O)O
experimental-readout: pIC50
Answers are plain numbers, as −log10 of the molar value.

Worked cases, pIC50 given:
molecule: CCCCCCCCc1ccc(C(=O)N[C@@H](CO)C(=O)N[C@H](C(=O)N[C@@H](C)C(=O)O)[C@@H](C)OP(=O)(O)O)cc1
pIC50: 3.69

molecule: CC(=O)N1CCC[C@H]1C(=O)N[C@@H](CC(C)C)C(=O)N[C@@H](Cc1c[nH]cn1)C(=O)N[C@@H](CO)C(=O)N[C@H](C(=O)N1CCC[C@H]1C(=O)N[C@@H](CCCCN)C(=O)N[C@@H](CC(N)=O)C(=O)NCC(=O)O)[C@@H](C)OP(=O)(O)O [SEQ ID NO: 9, Ac-PLHS[pT]PKNG] (Ac-PLHS[pT]PKNG-OH; C-terminus assumed)
pIC50: 3.87

molecule: CCCCCCCCc1ccc(C(=O)N[C@@H](CO)C(=O)N[C@H](C(=O)N2CCC[C@H]2C(=O)N[C@@H](CC(C)C)C(=O)O)[C@@H](C)OP(=O)(O)O)cc1 [Compound 16] ({Benzoyl(4-octyl)}-S[pT]PL-OH; C-terminus assumed)
pIC50: 3.21

molecule: CC[C@H](C)[C@H](NC(=O)[C@H](C)NC(=O)[C@@H](NC(=O)[C@H](CO)NC(=O)[C@H](Cc1c[nH]cn1)NC(=O)[C@H](CC(C)C)NC(=O)[C@@H]1CCCN1C(C)=O)[C@@H](C)OP(=O)(O)O)C(=O)O [SEQ ID NO: 4, Ac-PLHS[pT]Al] (Ac-PLHS[pT]AI-OH; C-terminus assumed)
pIC50: 3.57

Exam item: # lookup: pIC50 of CC(=O)N1CCC[C@H]1C(=O)N[C@@H](CC(C)C)C(=O)N[C@@H](Cc1c[nH]cn1)C(=O)N[C@@H](CO)C(=O)N[C@H](C(=O)N1CCC[C@H]1C(=O)N[C@@H](CC(N)=O)C(=O)NCC(=O)N[C@@H](CC(C)C)C(=O)O)[C@@H](C)OP(=O)(O)O [SEQ ID NO: 3, Ac-PLHS[pT]PNGL] (Ac-PLHS[pT]PNGL-OH; C-terminus assumed)
Marked response: 3.79
